# Protocol Text: Plasma protein binding, mouse
# Type: in vitro ADME
# Run Conditions: bound, read-out: Plasma protein binding in mice (%) (converted)
# Description: A parallel artificial-membrane permeability assay (PAMPA) and mouse liver microsome (MLM), human liver microsome (HLM), aqueous solubility, Log D, protein binding, and cytochrome P450 2D6 and 3A4 assays were carried out at Piramal Pharma Solutions.
Measurement Label: fraction unbound
No unit in the answer, only the number.

Prompt: Query (compound): O=C(N[C@@H](Cc1ccccn1)C(=O)N[C@@H](CCc1ccccc1)B(O)O)c1cnccn1 ; field requested: fraction unbound
Completion: 0.0954

* * *

# Protocol Text: Intravenous/oral pharmacokinetics and tissue distribution in mice
# Type: in vivo
# Run Conditions: female, ICR, mouse, plasma, po, 10 mg/kg p.o., read-out: AUC0-inf
Measurement Label: AUC(0-inf) (ng·h/mL)
Value expressed in ng·h/mL; do not type the unit.

Prompt: Query (compound): O=C(N[C@@H](Cc1ccccn1)C(=O)N[C@@H](CCc1ccccc1)B(O)O)c1cnccn1 ; field requested: AUC(0-inf)
Completion: 2870

Numbers sourced from paper PMC5404560.
